MEASURED ON: NUPR1 (Homo sapiens, UniProt O60356)
Construct: made in house
Sequence (O60356 1-82): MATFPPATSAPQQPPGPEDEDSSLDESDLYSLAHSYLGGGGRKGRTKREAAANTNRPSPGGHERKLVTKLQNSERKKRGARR
ASSAY NAME: Isothermal titration calorimetry (ITC) binding to NUPR1
RUN CONDITIONS: 25 °C, pH 7.0
Kindly state N (stoichiometry) for each of the entries shown.
Form field (numeric): enter value without unit.

Problem: Missing value: N (stoichiometry), NUPR1 (Homo sapiens, UniProt O60356), entry `CCN(CC)CCCN1CCN(CCCN2c3ccccc3Sc3ccc(C(F)(F)F)cc32)CC1` . Fill in?
Result: 1.2

Problem: What reported N (stoichiometry) corresponds to `CN(C)CCCN1CCN(CCCN2c3ccccc3Sc3ccc(C(F)(F)F)cc32)CC1` on NUPR1 (Homo sapiens, UniProt O60356)?
Result: 1.3

Problem: # get_value(readout= N (stoichiometry), system= NUPR1 (Homo sapiens, UniProt O60356)) for `FC(F)(F)c1ccc2c(c1)N(CCCN1CCN(CCN3CCCCC3)CC1)c1ccccc1S2`
Result: 0.8

Problem: Notebook entry, NUPR1 (Homo sapiens, UniProt O60356) assay: N (stoichiometry) of `FC(F)(F)c1ccc2c(c1)N(CCCN1CCN(CCN3CCOCC3)CC1)c1ccccc1S2` = ?
Result: 1.2

Problem: Notebook: pull reported N (stoichiometry) for NUPR1 (Homo sapiens, UniProt O60356), entry `CCN(CC)CCN1CCN(CCCN2c3ccccc3Sc3ccc(C(F)(F)F)cc32)CC1`
Result: 1.2

Problem: Hello, I am looking for reported N (stoichiometry) with NUPR1 (Homo sapiens, UniProt O60356) for `FC(F)(F)c1ccc2c(c1)N(CCCN1CCN(CCCN3CCCCC3)CC1)c1ccccc1S2` . Could you help?
Result: 1.2

Problem: What is its N (stoichiometry) for NUPR1 (Homo sapiens, UniProt O60356)? Entry: `FC(F)(F)c1ccc2c(c1)N(CCCN1CCN(CCCN3CCOCC3)CC1)c1ccccc1S2`
Result: 1.2

Problem: Form field: N (stoichiometry) recorded for `FC(F)(F)c1ccc2c(c1)N(CCCN1CCN(CCCN3CCCC3)CC1)c1ccccc1S2` with NUPR1 (Homo sapiens, UniProt O60356) (enter value)
Result: 1.2

Problem: # returns recorded N (stoichiometry) (system: NUPR1 (Homo sapiens, UniProt O60356)) for `FC(F)(F)c1ccc2c(c1)N(CCCN1CCN(CCN3CCCC3)CC1)c1ccccc1S2`
Result: 1.4

The measured values listed here are drawn from paper PMC8533202.
